Tested on: Hepatitis B virus
METHOD: Antiviral activity against HBV infected in human HepG2 2.2.15 cells assessed as inhibition of viral DNA replication at 4 uM incubated for 6 days with every 2 days media replacement by RT-PCR analysis relative to control
Type: functional
Set-up: scale not given: the % may be the effect or the level left
ASSAY CONTEXT: time 6 day
MEASURE NAME: Activity (%)
Numeric answer only, unit % assumed.

Sample records with Activity:
> print(dat)
                           structure.string  test.result
1  Cc1ccc(C(=O)NCCn2cnc3cc(-c4noc(CCC5CCCC5)n4)ccc32)cc1        54.11
2  O=C(NCCn1cnc2cc(-c3noc(CCC4CCCC4)n3)ccc21)c1ccc(F)cc1        65.06
3  O=C(CCn1cnc2cc(-c3noc(CCC4CCCC4)n3)ccc21)N1CCCC1        48.57
4  O=C(NCCn1cnc2cc(-c3noc(CCC4CCCC4)n3)ccc21)c1ccc(Cl)cc1        63.41
5  O=C(NCCn1cnc2cc(-c3noc(CCC4CCCC4)n3)ccc21)c1ccccc1Br        53.47

Then this compound:
(Q) Value wanted: Activity (Hepatitis B virus) of entry O=C(NCCn1cnc2cc(-c3noc(CCC4CCCC4)n3)ccc21)c1ccc(Br)cc1
(A) 38.03

====

Tested on: Hepatitis B virus
METHOD: Antiviral activity against HBV infected in human HepG2 2.2.15 cells assessed as inhibition of viral DNA replication at 4 uM incubated for 6 days with every 2 days media replacement by RT-PCR analysis relative to control
Type: functional
Set-up: scale not given: the % may be the effect or the level left
ASSAY CONTEXT: time 6 day
// returns n unless Activity is strictly below 60%, in which case y

Some entries whose results are on file:
> print(dat)
                                   molecule  label.class
1  COc1ccc(C(=O)NCCn2cnc3cc(-c4noc(CCC5CCCC5)n4)ccc32)cc1            n
2  O=C(NCCn1cnc2cc(-c3noc(CCC4CCCC4)n3)ccc21)c1ccc(C(F)(F)F)cc1            n
3  O=C(CCn1cnc2cc(-c3noc(CCC4CCCC4)n3)ccc21)N1CCOCC1            y
4  O=C(NCCn1cnc2cc(-c3noc(CCC4CCCC4)n3)ccc21)c1ccccc1I            y
5  O=C(CCn1cnc2cc(-c3noc(CCC4CCCCC4)n3)ccc21)N1CCCC1            y
6  O=C(CCn1cnc2cc(-c3noc(CCc4ccccc4)n3)ccc21)N1CCCC1            y

(Q) Strictly below 60% in Activity? O=C(CCn1cnc2cc(-c3noc(CCC4CCCC4)n3)ccc21)NC1CCCC1
(A) y

(Q) What do you get for COc1cccc(C(=O)NCCn2cnc3cc(-c4noc(CCC5CCCC5)n4)ccc32)c1 ?
(A) n

(Q) What do you get for O=C(NCCn1cnc2cc(-c3noc(CCC4CCCC4)n3)ccc21)c1ccccc1Cl ?
(A) y

====

// reported Activity per item
System: Hepatitis B virus
METHOD: Antiviral activity against HBV infected in human HepG2 2.2.15 cells assessed as inhibition of viral DNA replication at 4 uM incubated for 6 days with every 2 days media replacement by RT-PCR analysis relative to control
Type: functional
Parameters: scale not given: the % may be the effect or the level left
ASSAY CONTEXT: time 6 day
Numeric answer only, unit % assumed.

Sample records with Activity:
> print(dat)
                                   molecule  output.unit  test.result
1  Cc1ccccc1NC(=O)CCn1cnc2cc(-c3noc(CCC4CCCC4)n3)ccc21            %         7.43
2  COc1ccccc1C(=O)NCCn1cnc2cc(-c3noc(CCC4CCCC4)n3)ccc21            %        76.09
3  Nc1ccn([C@@H]2CS[C@H](CO)O2)c(=O)n1 [LAMIVUDINE]            %        84.42
4  O=C(NCCn1cnc2cc(-c3noc(CCC4CCCC4)n3)ccc21)c1cccc(I)c1            %        68.86
5  O=C(CCn1cnc2cc(-c3noc(CCC4CCCC4)n3)ccc21)N1CCCCC1            %         53.4

(Q) Give its Activity value. Item: O=C(NCCn1cnc2cc(-c3noc(CCC4CCCC4)n3)ccc21)c1cccc(Br)c1
(A) 64.39

(Q) What do you get for O=C(NCCn1cnc2cc(-c3noc(CCC4CCCC4)n3)ccc21)c1ccccc1F ?
(A) 54.72
